TESTED TARGET: UniProt P49841
Sequence (P49841 whole entry): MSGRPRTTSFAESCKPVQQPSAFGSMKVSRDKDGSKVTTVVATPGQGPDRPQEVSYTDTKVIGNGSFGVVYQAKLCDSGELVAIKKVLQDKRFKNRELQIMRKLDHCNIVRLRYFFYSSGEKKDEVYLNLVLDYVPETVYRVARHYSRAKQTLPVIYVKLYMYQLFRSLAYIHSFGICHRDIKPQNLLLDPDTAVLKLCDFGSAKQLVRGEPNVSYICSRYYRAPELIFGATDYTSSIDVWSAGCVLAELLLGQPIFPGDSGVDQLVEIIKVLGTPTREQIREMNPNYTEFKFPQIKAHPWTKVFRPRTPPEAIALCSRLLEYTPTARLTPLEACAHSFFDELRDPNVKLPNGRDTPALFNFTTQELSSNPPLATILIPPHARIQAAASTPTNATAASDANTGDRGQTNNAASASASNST
PROTOCOL DESCRIPTION: Inhibition of human recombinant GSKbeta
// values below are reported IC50

- COMPOUND: "CC(=O)Nc1nc(C)c(S(=O)(=O)Oc2cccc3c2[nH]c2c(C4=C[C@@]5(O)CC/C=C\\CCCCN6CCC4[C@]4(C[C@@H]7CCC(=O)CCCN7[C@H]45)C6)nccc23)s1 (stereo not given in full)"
  TESTED TARGET: "UniProt P49841"
  IC50: "8.5 µM"
- COMPOUND: "O[C@]12C=C(c3nccc4c3[nH]c3ccccc34)[C@@H]3CCN(CCCC/C=C\\CC1)C[C@@]31C[C@@H]3/C=C\\CCCCN3[C@H]12 [MANZAMINE A]"
  TESTED TARGET: "UniProt P49841"
  IC50: "10.2 µM"
- COMPOUND: "CC(=O)Oc1cccc2c1[nH]c1c(C3=C/C4=C/C/C=C\\CCCCN5CCC3[C@]3(C[C@@H]6/C=C\\CCCCN6[C@@H]43)C5)nccc12 (stereo not given in full) [12,13-DEHYDRO-8-O-ACETYLMANZAMINE A]"
  TESTED TARGET: "UniProt P49841"
  IC50: "4.8 µM"
- COMPOUND: "O=C1CCCN2[C@@H](CC1)C[C@]13CN4CCCC/C=C\\CC[C@](O)(C=C(c5nccc6c5[nH]c5c(OS(=O)(=O)c7ccc(Cl)cc7)cccc56)C1CC4)[C@H]23 (stereo not given in full)"
  TESTED TARGET: "UniProt P49841"
  IC50: "7.2 µM"
- COMPOUND: "Oc1ccc2[nH]c3c(C4=C[C@@]5(O)CC/C=C\\CCCCN6CCC4[C@]4(C[C@@H]7/C=C\\CCCCN7[C@H]45)C6)nccc3c2c1 (stereo not given in full)"
  TESTED TARGET: "UniProt P49841"
  IC50: "16.6 µM"
- COMPOUND: "CCOc1cccc2c3ccnc(C4=C[C@@]5(O)CC/C=C\\CCCCN6CCC4[C@]4(C[C@@H]7/C=C\\CCCCN7[C@H]45)C6)c3n(CC)c12 (stereo not given in full) [9-N-ETHYL-8-ETHOXY-MANZAMINE A]"
  TESTED TARGET: "UniProt P49841"
  IC50: "10.4 µM"
- COMPOUND: "O=C1CCCN2[C@@H](CC1)C[C@]13CN4CCCC/C=C\\CC[C@](O)(C=C(c5nccc6c5[nH]c5ccccc56)C1CC4)[C@H]23 (stereo not given in full) [MANZAMINE E]"
  TESTED TARGET: "UniProt P49841"
  IC50: "25 µM"
- COMPOUND: "Oc1cccc2c1[nH]c1c(C3=C[C@@]4(O)CC/C=C\\CCCCN5CC[C@@H]3[C@]3(CC6/C=C\\CCCCN6[C@H]34)C5)nccc12 (stereo not given in full)"
  TESTED TARGET: "UniProt P49841"
  IC50: "4.8 µM"

// returns reported IC50 for input C1=C(c2nccc3c2[nH]c2ccccc23)C2CCN3CCCC/C=C\C/C=C/1[C@@H]1N4CCCC/C=C\[C@H]4C[C@]21C3 (stereo not given in full) [12,13-DEHYDROMANZAMINE A]
5.4 µM

// returns reported IC50 for input O=C1CCCN2[C@@H](CC1)C[C@]13CN4CCCC/C=C\CC[C@](O)(C=C(c5nccc6c5[nH]c5c(OS(=O)(=O)c7ccc(Br)cc7)cccc56)C1CC4)[C@H]23 (stereo not given in full)
23 µM
